Target: OR51E1 olfactory receptor (Homo sapiens, UniProt Q8TCB6)
Construct: expressed in transfected cells
Sequence (Q8TCB6 whole entry): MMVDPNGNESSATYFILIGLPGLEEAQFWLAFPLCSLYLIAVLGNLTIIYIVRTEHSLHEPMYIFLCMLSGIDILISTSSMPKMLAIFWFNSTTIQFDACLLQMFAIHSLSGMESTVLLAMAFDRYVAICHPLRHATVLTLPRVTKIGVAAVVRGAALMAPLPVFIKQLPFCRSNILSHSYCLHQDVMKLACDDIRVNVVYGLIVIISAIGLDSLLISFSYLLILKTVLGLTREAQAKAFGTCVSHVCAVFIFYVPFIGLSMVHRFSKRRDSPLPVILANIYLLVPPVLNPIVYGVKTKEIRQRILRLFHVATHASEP
Test: Butyric acid olfactory receptor antagonist cell-based dose-response vs butyric acid EC80
Settings: Table 20, spiro analogues
Measured IC50 of individual entries
The response must be a number in µM with no trailing unit.

Some compounds with recorded IC50:
compound	quantityMeasured	unitsOfMeasure	resultValue
CC(=O)OC(C1C(C)CC(C)CC1C)C(C)(C)C (centres unmarked)	IC50	µM	242
CC1C=CCC12CCCC(C)(C)C2=O (centres unmarked) [4,9,9-trimethylspiro[4.5]dec-2-en-10-one]	IC50	µM	268
CC1=C(C)CC2(CCCC(C)(C)C2OC=O)C1 (centres unmarked)	IC50	µM	25.9
CC(=O)OC1C(C)(C)CCCC12CC(C)=CC2C (centres unmarked)	IC50	µM	34.8
C[C@H]1CCC[C@]2(CCCC[C@@H]2C)[C@@H]1O	IC50	µM	76.9
CC1(C)CCCC2(CC=CC2)C1O (centres unmarked) [9,9-dimethylspiro[4.5]dec-2-en-10-ol]	IC50	µM	44.1
CC(=O)OC1C(C)(C)CCCC12C(C)C=CCC2C (centres unmarked)	IC50	µM	72.3
COC1C(C)(C)CCCC12CC=CC2 (centres unmarked)	IC50	µM	120

Exam item: Entry CC1=CC(C)C2(CCCC(C)(C)C2O)C1 (centres unmarked) : reported IC50 = ?
Marked response: 81.6

Exam item: Param item: CC1CCCCC12CCCCC2O (centres unmarked) [11-methylspiro[5.5]undecan-5-ol]
Marked response: 68.8

Exam item: Similarly, CC1(C)CCCC2(CC=CC2)C1=O [9,9-dimethylspiro[4.5]dec-2-en-10-one] ?
Marked response: 135

---

Target: OR51E1 olfactory receptor (Homo sapiens)
Construct: expressed in transfected cells
Assay: Butyric acid olfactory receptor antagonist cell-based dose-response vs butyric acid EC80
Conditions: Table 20, spiro analogues; read-out: Inhibition (%)
quantityMeasured: Emax (%)
Write the value in % as a bare number.

Check out these entries, answers already filled in.
molecule	Emax (%)
COC1C(C)(C)CCC12CC=CC2 (stereo not shown)	100
C=C(C)CC1(CC(=C)C)CCCC(C)(C)C1=O	103

Exam item: Requested field: Emax. Item: CC(=O)OC1C(C)(C)CCCC12CC=C(C)CC2C (stereo not shown)
Marked response: 104

Exam item: Entry to check: CC(=O)OC(C1C(C)CC(C)CC1C)C(C)(C)C (stereo not shown)
Marked response: 101

Exam item: Would you mind doing C=C(C)CC1(CC(=C)C)CCC(C)(C)C1O (stereo not shown) as well?
Marked response: 119

Exam item: Next entry: CC1=C(C)CC2(CCCC(C)(C)C2O)C1 (stereo not shown)
Marked response: 16

Exam item: Let us now turn to CC1=CC(C)C2(CCCC(C)(C)C2O)C1 (stereo not shown)
Marked response: 22

---

Tested on: OR11A1, or the OR2M3 olfactory receptor
Test: Geonol olfactory receptor antagonist cell-based screening, inhibitory dose-response vs geonol EC80
Design: species or system human
Settings: geonol at EC80; read-out: IC50
quantityMeasured: IC50
Form entry: enter the amount, then its unit.

Exam item: Query IC50 on OR11A1, or the OR2M3 olfactory receptor for 6(8)-ISOPROPYLQUINOLINE [isopropyl quinoline]
Marked response: 400 µM

---

Measured IC50, listed per entry for reference.
Target: Olfr744 (Mus musculus, UniProt Q7TRM0)
Construct: Flag; Rho tag
Sequence (Q7TRM0 1-323): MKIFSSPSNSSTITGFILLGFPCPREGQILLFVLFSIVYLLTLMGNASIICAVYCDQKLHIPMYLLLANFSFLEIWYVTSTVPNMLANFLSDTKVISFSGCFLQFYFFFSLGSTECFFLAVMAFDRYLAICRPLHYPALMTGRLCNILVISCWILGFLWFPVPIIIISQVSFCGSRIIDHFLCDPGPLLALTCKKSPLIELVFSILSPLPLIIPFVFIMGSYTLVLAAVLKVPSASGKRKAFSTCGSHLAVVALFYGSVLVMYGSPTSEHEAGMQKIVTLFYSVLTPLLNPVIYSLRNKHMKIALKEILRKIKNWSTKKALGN
Assay: Indole antagonist dose-response, cAMP HTRF in HEK293T, vs indole EC80
Conditions: Table 23
Experimental: Functional dose-response experiments were performed to identify compounds capable of antagonizing indole-sensitive receptors previously identified (U.S. Pat. No. 9,914,760 B2). […] Odorant-induced activity was detected by measuring the cAMP increase in the cytosol using an HTRF based kit (CisBio, cAMP dynamic 2 kit, cat. 62AM4PEJ). […]
Answer format: numeric, µM implied, no suffix.

compound	subjectOfTest	IC50 (µM)
CC(C)(C)C1CCC(=O)CC1	Olfr744 (Mus musculus, UniProt Q7TRM0)	175
CC1(C)CCC[C@]2(C)CC(=O)CC[C@@H]12 (racemic)	Olfr744 (Mus musculus, UniProt Q7TRM0)	74.7
C=C1CC[C@H]2O[C@]2(C)CC[C@@H]2[C@@H]1CC2(C)C	Olfr744 (Mus musculus, UniProt Q7TRM0)	113

// next item, IC50 requested
Exam item: Return reported IC50; argument: c1nc2c(o1)CCCCCCCCCC2
Marked response: 117

The values you see were collected from patent US20230233425A1.
